Let's go through some MIC measurements on Sarcina lutea ATCC 9341 together.
Reported property: MIC

* NNC(=O)c1cn2c3c(cc(F)cc3c1=O)C1CCCCC12 (stereo not drawn) | > 100 µg/mL
* Nc1ccc2c3c1c(=O)c(C(=O)O)cn3C1CCCCC21 (stereo not drawn) | > 100 µg/mL
* CCn1cc(C(=O)O)c(=O)c2ccc(C)nc21 [Compound 13, reference compound] | > 100 µg/mL

The reported measurements were obtained from patent US4293694A.
